Tested target: TPM3-TRKA (Homo sapiens (Human), UniProt P04629+P06753)
Sequence (P04629 other isoform, or with tags, fused parts or gaps): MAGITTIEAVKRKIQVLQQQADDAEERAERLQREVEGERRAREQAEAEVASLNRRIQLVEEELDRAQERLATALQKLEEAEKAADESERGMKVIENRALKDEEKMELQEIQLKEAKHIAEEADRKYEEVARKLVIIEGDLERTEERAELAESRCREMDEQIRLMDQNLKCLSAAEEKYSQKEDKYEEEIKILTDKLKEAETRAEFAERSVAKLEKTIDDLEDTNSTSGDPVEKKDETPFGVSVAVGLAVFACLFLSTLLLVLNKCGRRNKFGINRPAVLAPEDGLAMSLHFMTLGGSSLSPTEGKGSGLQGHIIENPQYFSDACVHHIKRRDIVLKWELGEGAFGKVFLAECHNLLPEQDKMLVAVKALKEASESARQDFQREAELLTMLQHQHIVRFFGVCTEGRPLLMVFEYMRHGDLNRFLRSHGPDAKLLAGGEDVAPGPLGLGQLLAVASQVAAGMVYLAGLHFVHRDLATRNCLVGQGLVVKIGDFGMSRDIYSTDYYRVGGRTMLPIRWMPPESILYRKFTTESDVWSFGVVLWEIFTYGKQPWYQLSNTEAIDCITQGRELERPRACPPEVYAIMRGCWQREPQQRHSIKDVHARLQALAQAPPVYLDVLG
Run description: TRKA phosphorylation assay in KM12 cells (western blot)
Condition context: 5 hours treatment, read-out: inhibition of autophosphorylation of TPM3-TRKA IC50

Sample smiles	Readout units	IC50
CN1Cc2cc(F)ccc2OCCNC(=O)c2cnn3ccc1nc23	nM	1.07

====

System: Essential thrombocythemia cell line SET-2 cells (harboring endogenous JAK2 point mutation)
Run description: SET-2 cell proliferation assay (CellTiter-Glo)
Format: cell-based
Condition context: Homo sapiens, 72 hours incubation, read-out: SET2 cell proli. IC50

Compound	Comparator	IC50 [nM]
CN1Cc2cc(F)ccc2SCCNC(=O)c2cnn3ccc1nc23	=	2350
CN1Cc2cc(F)ccc2OCCCNC(=O)c2cnn3ccc1nc23	=	4440
CCC1Nc2ccn3ncc(c3n2)C(=O)NCCOc2ccc(F)cc21 (stereo not drawn)	=	928
CN1Cc2cc(F)ccc2[S+]([O-])CCNC(=O)c2cnn3ccc1nc23 (stereo not drawn)	>	10000
C[C@H]1Nc2ccn3ncc(c3n2)C(=O)NCCCOc2ccc(F)cc21	=	1000
CN1Cc2cc(F)ccc2OCCNC(=O)c2cnn3ccc1nc23	=	2000
O=C1NCCOc2ccc(F)cc2CNc2ccn3ncc1c3n2	=	6000
CN1Cc2ccccc2OCCNC(=O)c2cnn3ccc1nc23	=	7000
C[C@@H]1COc2ccc(F)cc2CN(C)c2ccn3ncc(c3n2)C(=O)N1	=	2670

====

System: Essential thrombocythemia cell line SET-2 cells (harboring endogenous JAK2 point mutation)
Run description: SET-2 cell proliferation assay (CellTiter-Glo)
Assay type: cell-based
Condition context: Homo sapiens, 72 hours incubation, read-out: SET2 cell proli. IC50
The molecules listed here are annotated with their IC50.

Molecule	Tested target	Readout units	Comparator	IC50
C[C@H]1CNC(=O)c2cnn3ccc(nc23)N[C@H](C)c2cc(F)ccc2O1 [Example 93]	Essential thrombocythemia cell line SET-2 cells (harboring endogenous JAK2 point mutation)	µM	=	0.242
CC(C)N1Cc2cc(F)ccc2OCCNC(=O)c2cnn3ccc1nc23 [Example 45]	Essential thrombocythemia cell line SET-2 cells (harboring endogenous JAK2 point mutation)	µM	=	8
O=C1NCCOc2ccc(F)cc2C(CC2CC2)Nc2ccn3ncc1c3n2 (stereo not shown) [Example 89]	Essential thrombocythemia cell line SET-2 cells (harboring endogenous JAK2 point mutation)	µM	=	0.859
CC1Nc2ccn3ncc(c3n2)C(=O)NCCOc2ccc(Cl)cc21 (stereo not shown) [Example 84]	Essential thrombocythemia cell line SET-2 cells (harboring endogenous JAK2 point mutation)	µM	=	3.15
CC(C)(O)CN1Cc2cc(F)ccc2OCCNC(=O)c2cnn3ccc1nc23 [Example 101]	Essential thrombocythemia cell line SET-2 cells (harboring endogenous JAK2 point mutation)	µM	=	6
CN1Cc2c(ccc(F)c2Cl)OCCNC(=O)c2cnn3ccc1nc23 [Example 39]	Essential thrombocythemia cell line SET-2 cells (harboring endogenous JAK2 point mutation)	µM	=	8.8
CC1Oc2ccn3ncc(c3n2)C(=O)NCCOc2ccc(F)c(Cl)c21 (stereo not shown) [Example 11-1]	Essential thrombocythemia cell line SET-2 cells (harboring endogenous JAK2 point mutation)	µM	>	10

====

A short record of Kd observed with TRKA (Homo sapiens (Human)) follows.
Sequence (P04629 33-796): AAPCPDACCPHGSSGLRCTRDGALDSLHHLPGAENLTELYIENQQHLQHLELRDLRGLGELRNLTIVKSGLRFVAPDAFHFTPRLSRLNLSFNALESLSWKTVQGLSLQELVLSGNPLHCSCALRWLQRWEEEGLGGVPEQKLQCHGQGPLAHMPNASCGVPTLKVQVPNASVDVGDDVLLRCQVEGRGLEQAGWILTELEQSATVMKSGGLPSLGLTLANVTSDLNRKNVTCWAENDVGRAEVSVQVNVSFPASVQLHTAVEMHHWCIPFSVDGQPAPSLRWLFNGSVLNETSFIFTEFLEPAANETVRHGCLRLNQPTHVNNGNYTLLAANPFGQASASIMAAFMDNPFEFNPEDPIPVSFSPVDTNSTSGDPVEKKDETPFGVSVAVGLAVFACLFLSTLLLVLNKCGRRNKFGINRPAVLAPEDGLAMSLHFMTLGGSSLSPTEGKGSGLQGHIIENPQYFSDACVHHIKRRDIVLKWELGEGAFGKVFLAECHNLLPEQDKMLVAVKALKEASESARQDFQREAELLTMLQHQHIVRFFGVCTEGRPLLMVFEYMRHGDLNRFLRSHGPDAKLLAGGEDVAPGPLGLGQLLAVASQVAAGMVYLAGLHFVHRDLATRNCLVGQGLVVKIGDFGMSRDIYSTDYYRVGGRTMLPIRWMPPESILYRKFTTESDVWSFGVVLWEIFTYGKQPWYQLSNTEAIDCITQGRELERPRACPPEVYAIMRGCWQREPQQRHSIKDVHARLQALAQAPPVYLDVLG

Sample smiles	Readout units	Kd
CCN1Cc2cc(F)ccc2OCCNC(=O)c2cnn3ccc1nc23	pM	86
CN1Cc2ccccc2OCCNC(=O)c2cnn3ccc1nc23	pM	140
C[C@H]1Nc2ccn3ncc(c3n2)C(=O)NCCOc2ccc(F)cc21	pM	51
CN1Cc2cc(F)ccc2OCCNC(=O)c2cnc3ccc1nn23	pM	88

====

Test system: Colorectal cell line KM12 (harboring endogenous TPM3-TRKA fusion gene)
Run description: KM12 cell proliferation assay (CellTiter-Glo)
Assay type: cell-based
Condition context: Homo sapiens, 72 hours incubation, read-out: KM 12 cell prolif. IC50
IC50 overview

Compound	Comparator	IC50, nM
CC(C)(O)CN1Cc2cc(F)ccc2OCCNC(=O)c2cnn3ccc1nc23	>	1000
CC1Oc2ccn3ncc(c3n2)C(=O)NCCOc2ccc(F)c(Cl)c21 (stereo not drawn)	>	10000
NC(=O)C1Nc2ccn3ncc(c3n2)C(=O)NCCOc2ccc(F)cc21 (stereo not drawn)	>	1000
O=C1NCCOc2ccc(F)cc2C(CC2CC2)Nc2ccn3ncc1c3n2 (stereo not drawn)	=	0.2
CN1Cc2c(ccc(F)c2Cl)OCCNC(=O)c2cnn3ccc1nc23	=	3.8
CC(C)N1Cc2cc(F)cnc2OCCNC(=O)c2cnn3ccc1nc23	=	0.9
CC1Nc2ccn3ncc(c3n2)C(=O)NCCOc2ccc(F)c(Cl)c21 (stereo not drawn)	=	52
CN1Cc2cc(F)ccc2OCCNC(=O)c2cnn3ccc1nc23	=	0.86
O=C1NCCOc2ccc(F)cc2CNc2ccn3ncc1c3n2	=	74
CN1Cc2cc(F)ccc2OCCNC(=O)c2cnc3ccc1nn23	=	4
O=C1NCCOc2ccc(F)cc2C(c2ccccc2)Nc2ccn3ncc1c3n2 (stereo not drawn)	=	50.4
CN1CCC(N2Cc3cc(F)ccc3OCCNC(=O)c3cnn4ccc2nc34)C1 (stereo not drawn)	=	500
C[C@@H]1COc2ccc(F)cc2[C@@H](C)Nc2ccn3ncc(c3n2)C(=O)N1	=	0.7
CC1COc2ccc(F)cc2CN(C)c2ccn3ncc(c3n2)C(=O)N1 (stereo not drawn)	=	62
O=C1NCCOc2ccc(F)cc2CCc2ccn3ncc1c3n2	=	1.2
